Source: patent US20150218285A1

# test.system: T1, CAPRIN-1 protein on the cell surface of human cancer cells (human, UniProt Q14444 2-709)
# T1 construct: whole, on cells; endogenous protein of human cancer cell lines
# T1 sequence (looked up): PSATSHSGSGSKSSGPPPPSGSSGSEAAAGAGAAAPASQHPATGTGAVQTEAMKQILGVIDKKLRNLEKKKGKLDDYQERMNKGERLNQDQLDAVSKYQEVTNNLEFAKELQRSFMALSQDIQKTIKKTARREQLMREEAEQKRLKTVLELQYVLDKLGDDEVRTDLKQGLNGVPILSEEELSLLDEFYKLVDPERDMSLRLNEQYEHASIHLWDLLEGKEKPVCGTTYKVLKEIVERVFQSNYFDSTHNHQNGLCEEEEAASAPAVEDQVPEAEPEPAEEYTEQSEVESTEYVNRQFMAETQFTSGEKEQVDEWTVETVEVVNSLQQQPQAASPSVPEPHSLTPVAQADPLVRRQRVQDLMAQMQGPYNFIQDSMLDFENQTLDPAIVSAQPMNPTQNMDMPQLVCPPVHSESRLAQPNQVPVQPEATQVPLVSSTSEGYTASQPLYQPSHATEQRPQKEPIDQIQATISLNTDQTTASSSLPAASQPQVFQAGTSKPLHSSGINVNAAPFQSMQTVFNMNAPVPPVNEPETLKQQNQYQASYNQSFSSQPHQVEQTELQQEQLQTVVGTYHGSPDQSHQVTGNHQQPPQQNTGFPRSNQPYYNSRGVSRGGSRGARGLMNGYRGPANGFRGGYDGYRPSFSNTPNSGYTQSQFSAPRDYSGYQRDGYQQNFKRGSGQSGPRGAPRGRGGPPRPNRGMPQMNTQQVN
# procedure.text: flow cytometry on Hep3B, HepG2, SK-Hep-1, SW480; culture supernatant; vs isotype control
measured.attribute: rate of increase in mean fluorescence intensity

mouse monoclonal antibody #8 (antibody, V domains shown, mouse hybridoma antibody; also called anti-CAPRIN-1 monoclonal antibody #8) VH: GGGLVKPGGSLKLSCAASGFAFSSYDMSWIRQTPEKRLEWVAYISSGAGSTYYPDTVKGRFTVSRDNAKNTLYLQMSSLKSEDTAMYYCARHFYRFDYWGQGTTVTVSS VL: SIVMTQTPKFLLVSAGDRITITCKASQSVSNDVAWYQQKPGQSPKLLIYYASNRYTGVPDRFTGSGYGTDFTFTISTVQAEDLAVYFCQQDDRFPLTFGAGPS    ≥ 20%
mouse-chicken chimeric antibody #2 (antibody, mouse IgG1, V domains shown) VH: AVTLDESGGGLQTPGGGLSLVCKASGFTFSSFDMGWVRQAPGKGLEFVAQINDAGSRTWYATAVKGRATISRDNGQTTVRLQLNNLRAEDTGTYYCTRGSGYVGAGAIDAWGHGTEVIVS VL: AALTQPSSVSANPGETVKITCSGGSGYYGWYQQQKSPGSAPVTVIYQNDKRPSDIPSRFSGSGSGSTNTLTITGVQAEDEAVYFCGRYDSTDSGIFGAGTTLTVL    ≥ 20%
mouse monoclonal antibody #4 (antibody, V domains shown, mouse hybridoma antibody) VH: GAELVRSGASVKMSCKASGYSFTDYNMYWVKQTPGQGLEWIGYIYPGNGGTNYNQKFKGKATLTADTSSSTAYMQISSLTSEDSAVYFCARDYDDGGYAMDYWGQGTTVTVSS VL: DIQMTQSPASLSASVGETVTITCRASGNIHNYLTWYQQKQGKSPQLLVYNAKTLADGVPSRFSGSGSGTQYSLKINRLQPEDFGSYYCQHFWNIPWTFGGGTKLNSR    ≥ 20%
